// provenance: ChEMBL document CHEMBL4118265

- experimental.system: Cholinesterase (Equus caballus) (UniProt P81908)
- Sequence (P81908 whole entry): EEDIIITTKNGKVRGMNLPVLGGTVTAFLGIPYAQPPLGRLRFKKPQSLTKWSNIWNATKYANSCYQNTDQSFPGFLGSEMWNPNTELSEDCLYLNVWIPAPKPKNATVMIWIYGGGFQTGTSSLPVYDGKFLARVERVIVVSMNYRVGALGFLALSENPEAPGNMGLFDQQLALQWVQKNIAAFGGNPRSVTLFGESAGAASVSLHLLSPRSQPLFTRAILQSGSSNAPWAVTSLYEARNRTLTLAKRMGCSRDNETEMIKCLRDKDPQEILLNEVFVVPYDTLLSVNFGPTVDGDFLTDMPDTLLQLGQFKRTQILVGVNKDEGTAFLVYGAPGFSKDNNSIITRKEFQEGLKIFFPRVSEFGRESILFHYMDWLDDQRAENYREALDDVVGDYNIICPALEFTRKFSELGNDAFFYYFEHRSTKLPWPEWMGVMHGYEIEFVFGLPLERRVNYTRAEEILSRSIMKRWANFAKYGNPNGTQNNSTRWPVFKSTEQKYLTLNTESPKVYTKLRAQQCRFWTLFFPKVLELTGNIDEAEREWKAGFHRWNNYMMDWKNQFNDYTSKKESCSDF
- assay.overview: Inhibition of horse serum BChE at 3.125 ug using butyrylthiocholine chloride as substrate preincubated for 15 mins followed by substrate addition measured every 5 mins for 15 mins by spectrophotometric method relative to control
property: inhibition
Write the numeric value and follow it with the unit.

Consider the reported inhibition for these compounds:
                                   compound  result
0  Cc1[nH]nc2c1C(c1cc([N+](=O)[O-])ccc1Cl)c1c(nc3c(c1N)CCCC3)O2 (configuration not stated)   21.6%
1  Cc1[nH]nc2c1C(c1ccc([N+](=O)[O-])cc1)c1c(nc3c(c1N)CCCC3)O2 (configuration not stated)   75.1%
2  COc1ccc2ccccc2c1C1c2c(n[nH]c2C)Oc2nc3c(c(N)c21)CCCC3 (configuration not stated)   47.9%
3  COc1ccc(C2c3c(n[nH]c3C)Oc3nc4c(c(N)c32)CCCC4)c(OC)c1 (configuration not stated)     43%
4  CSc1ccc(C2c3c(n[nH]c3C)Oc3nc4c(c(N)c32)CCCC4)cc1 (configuration not stated)     31%

The compound identified as Cc1[nH]nc2c1C(c1ccc(Br)cc1)c1c(nc3c(c1N)CCCC3)O2 (configuration not stated) registered its inhibition at 43.1%

Record Cc1[nH]nc2c1C(c1ccccc1)c1c(nc3c(c1N)CCCC3)O2 (configuration not stated) . Reported inhibition: 23.9%

The recorded inhibition for entry Cc1[nH]nc2c1C(c1cccnc1)c1c(nc3c(c1N)CCCC3)O2 (configuration not stated) equals 57.1%

GET /value?item= `COc1ccc2c3c1O[C@H]1C[C@@H](O)C=C[C@@]31CCN(C)C2` &field=inhibition returns 63.9%

Lookup result for Cc1[nH]nc2c1C(c1c(Cl)cccc1[N+](=O)[O-])c1c(nc3c(c1N)CCCC3)O2 (configuration not stated) ; measured inhibition: 85.3%

Summary for this compound, Cc1ccc(C2c3c(n[nH]c3C)Oc3nc4c(c(N)c32)CCCC4)c(C)c1 (configuration not stated) : inhibition is 13.3%

Value of measured inhibition for the entry Cc1[nH]nc2c1C(c1ccc(Cl)cc1)c1c(nc3c(c1N)CCCC3)O2 (configuration not stated) : 27.9%
